outcome-measure: glass transition temperature (°C)
Write the number in °C without appending the unit.

The cases that follow already have their glass transition temperature on record.
{"compound": "*CCCCCOc1ccc(OCCCCCc2nnc(-c3ccc(-c4nnc(*)o4)cc3)o2)c(C)c1 (repeat unit)", "glass transition temperature [°C]": 95.00}
{"compound": "*CC(O)COC(=O)c1cccc(C(=O)OCC(O)COc2ccc(C(C)(C)c3ccc(O*)cc3)cc2)c1 (repeat unit)", "glass transition temperature [°C]": 97.00}

Problem: Which glass transition temperature reading was recorded for the compound *c1ccc2oc(-c3ccc(C(c4ccccc4)(c4ccc(-c5nc6cc(C(*)(C(F)(F)F)C(F)(F)F)ccc6o5)cc4)C(F)(F)F)cc3)nc2c1 (repeat unit) ?
Result: 310.00

Problem: I'd like to know its glass transition temperature. The compound in question is *CCCCCCOC(=O)CCC(=O)O* (repeat unit)
Result: -50.00

Problem: Fill in the blank: the reported glass transition temperature of *C(=O)Nc1ccc(Oc2cccc(NC(=O)c3ccc4c(c3)C(=O)N(c3ccc(-c5sc(-c6ccc(N7C(=O)c8ccc(*)cc8C7=O)cc6)c(-c6ccccc6)c5-c5ccccc5)cc3)C4=O)c2)cc1 (repeat unit) is ____.
Result: 315.00

Problem: May I ask what glass transition temperature has been recorded for *O[Si](C)(C)c1ccc([Si](*)(C)C)cc1 (repeat unit) ?
Result: -18.00

Problem: What does the record list as glass transition temperature for *O[Si](*)(C)CCCCCC (repeat unit) ?
Result: -110.8

Problem: Request the reported glass transition temperature associated with *C(=O)c1ccc2c(c1)C(=O)N(c1cc(C(=O)O)cc(N3C(=O)c4ccc(*)cc4C3=O)c1)C2=O (repeat unit)
Result: 314.00

Problem: Give its glass transition temperature value. Item: *c1ccc(Oc2cccc(Oc3ccc(N4C(=O)c5cccc(Oc6ccc(Sc7ccc(Oc8cccc9c8C(=O)N(*)C9=O)cc7)cc6)c5C4=O)cc3)c2)cc1 (repeat unit)
Result: 202.00

Problem: Which value of glass transition temperature has been reported for *CC(*)C(=O)Oc1ccccc1C (repeat unit) in the records?
Result: 51.50

Problem: State the recorded glass transition temperature for this entry: *C(=O)c1cc(C(=O)c2ccc3c(c2)C(=O)N(c2cccc(N4C(=O)c5ccc(*)cc5C4=O)c2)C3=O)cc(C(C)(C)C)c1 (repeat unit)
Result: 264.50

Problem: Which glass transition temperature is reported for this compound? *CCN(CCOC(=O)Nc1ccc(C)c(NC(=O)O*)c1)c1ccc(/C=C/c2ccc([N+](=O)[O-])cc2)cc1 (repeat unit)
Result: 121.00

---

Catalogue of glass transition temperature readings, one per entry.

{"compound": "*CC(*)C(=O)Oc1ccc(C(=O)OCC)cc1 (repeat unit)", "result": "37.00 °C"}
{"compound": "*CC(*)c1cc(Br)ccc1OCCCC (repeat unit)", "result": "47.00 °C"}
{"compound": "*CCCCCCCCCCCOC(=O)c1cc(OCCCCCCCCCCOc2ccc(/N=N/c3ccc(OC)cc3)cc2)cc(C(=O)OCCCCCCCCCCCOc2ccc(-c3ccc(O*)cc3)cc2)c1 (repeat unit)", "result": "53.00 °C"}
{"compound": "*Oc1ccc(C(C)(C)c2ccc(Oc3ccc(C(=O)c4ccc(-c5ccc(C(=O)c6ccc(*)cc6)cc5)cc4)cc3)cc2)cc1 (repeat unit)", "result": "186.00 °C"}
{"compound": "*CCCCCCCCCCCCOc1ccc(CCc2ccc(O*)cc2C)cc1 (repeat unit)", "result": "0.00 °C"}
{"compound": "*CCCOCCCCOCCCN1C(=O)c2ccc(C(=O)Oc3ccc(-c4ccc(OC(=O)c5ccc6c(c5)C(=O)N(*)C6=O)cc4)cc3)cc2C1=O (repeat unit)", "result": "70.00 °C"}

Let us examine a further case.
Problem: Which glass transition temperature is listed for *CCN(CCCCCOc1ccc(/N=N/c2ccccc2)cc1)CCOC(=O)Nc1ccc(Cc2ccc(NC(=O)O*)cc2)cc1 (repeat unit) ?
Result: 59.60 °C

The reported measurements were obtained from the PolyMetriX glass transition set.
